Taken from patent US11578055B2.

Quick reference for Liver Microsome Stability-% Left after 30 min w/ NADPH (%) Human among some molecules
Experiment: In Vitro Microsome Stability Assay (human)
Assay type: in vitro ADME
Settings: human liver microsomes, 30 min w/ NADPH
readout-name: Liver Microsome Stability-% Left after 30 min w/ NADPH (%) Human

# molecule, reported-value
records = [
    ("C[C@H]1CN(S(=O)(=O)c2ccc(N(C)C)cc2)CCCN([C@@H](C)c2ccccc2)CCCN(S(=O)(=O)N2CCc3ccccc3C2)C1 [A205]", 37.2),
    ("C[C@H]1CN(S(=O)(=O)c2ccc(N(C)C)cc2)CCCNCCCN(S(=O)(=O)N2CCc3cc(Cl)ccc3C2)C1 [A183]", 10.1),
    ("C[C@@H]1CN(S(=O)(=O)NCc2ccccc2)CCCN(CC2CCCCC2)CCCN(S(=O)(=O)c2ccc(N(C)C)cc2)C1 [A187]", 0.05),
    ("C[C@@H]1CN(CC2CCCCC2)C[C@@H](C)CN(S(=O)(=O)N2CCc3cc(Cl)ccc3C2)C[C@@H](C)CN(S(=O)(=O)c2ccc(N(C)C)cc2)C1 [A164]", 64.8),
    ("COc1cc(F)ccc1N1CCN(S(=O)(=O)N2CCCN([C@@H](C)C3CCCCC3)CCCN(S(=O)(=O)c3ccc(N(C)C)cc3)C[C@H](C)C2)CC1 [A203]", 83.4),
    ("CCc1ccc2c(c1)CCN(S(=O)(=O)N1CCCN(CC3CCCCC3)CCCN(S(=O)(=O)c3ccc(N(C)C)cc3)C[C@H](C)C1)C2 [A136]", 65.3),
    ("CC(C)N1CCCN(S(=O)(=O)c2ccc(N(C)C)cc2)C[C@H](C)CN(S(=O)(=O)N2CCc3cc(Cl)ccc3C2)CCC1 [A141]", 0.26),
    ("C[C@H]1CN(S(=O)(=O)c2ccc(N(C)C)cc2)CCCN([C@H](C)C2CCCCC2)CCCN(S(=O)(=O)N2CCc3cc(Cl)ccc3C2)C1 [A191]", 48.6),
    ("Cc1cccc(C)c1N1CCN(S(=O)(=O)N2CCCN(CC3CCCCC3)CCCN(S(=O)(=O)c3ccc(N(C)C)cc3)C[C@H](C)C2)CC1 [A119]", 71.7),
    ("C[C@H]1CN(S(=O)(=O)c2ccc(N(C)C)cc2)CCCN(CC2CCCCC2)CCCN(S(=O)(=O)N2CCN(c3ccccc3OC(F)(F)F)CC2)C1 [A173]", 56.1),
    ("C[C@H]1CCN(S(=O)(=O)N2CCc3cc(Cl)ccc3C2)CCCN(CC2CCCCC2)CCCN1S(=O)(=O)c1ccc(N(C)C)cc1 [A150]", 4.6),
    ("C[C@@H]1CCN(S(=O)(=O)c2ccc(N(C)C)cc2)CCCN(CC2CCCCC2)CCCN1S(=O)(=O)N1CCc2cc(Cl)ccc2C1 [A148]", 0.52),
    ("C[C@H]1CN(S(=O)(=O)c2ccc(N(C)C)cc2)CCCN(CCC2CCCCC2)CCCN(S(=O)(=O)N2CCc3cc(Cl)ccc3C2)C1 [A134]", 31.9),
]
